So I've got a bunch of variants here, and I need their protein stability index values.
B1: TBX5 (parent)
chain: YQNHKITQLKIENNPFAKGFRGSD

# Variants of: B1
# TEST: protein stability index of a GFP-peptide fusion (GPS, HEK-293T) (PSI 1-6); higher = more stable;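 also: lentivirally expressed fusions sorted by FACS into six bins by GFP to DsRed ratio, PSI derived from sequencing read proportions per bin multiplied by bin number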
# CONDITIONS USED: c terminus: a fixed tail appended

[ask] For the variant K10N , give its measured protein stability index value.
[reply] 2.46

[ask] Note protein stability index for the variant shown: P15R
[reply] 2.35

[ask] Could you please provide reported protein stability index for E12D ? Thanks!
[reply] 2.94

[ask] Consider the variant N13P and give its recorded protein stability index.
[reply] 2.25

[ask] Using known records, supply protein stability index for L9R
[reply] 3.54

[ask] For N13I , write its protein stability index.
[reply] 1.51

[ask] Output measured protein stability index for this item: I6R
[reply] 2.79

[ask] Identify measured protein stability index associated with K10A
[reply] 2.91

[ask] Give protein stability index for the following variant: L9Y
[reply] 2.31

[ask] Identify measured protein stability index corresponding to G22K
[reply] 2.49

[ask] Identify measured protein stability index corresponding to N3Q
[reply] 2.93

[ask] Kindly indicate its recorded protein stability index. Item: N3T
[reply] 2.42

[ask] In one line, give reported protein stability index of the entry G19R .
[reply] 2.22

[ask] // Input: G22T . Output its protein stability index only.
[reply] 2.67

[ask] Specify protein stability index for Y1N and stop.
[reply] 3.35

[ask] For the variant K10R , give its reported protein stability index.
[reply] 2.58

[ask] Return protein stability index (reported value) for this variant: K5N
[reply] 2.59

[ask] Quick one: give measured protein stability index for F20L
[reply] 2.79

[ask] Supply protein stability index value. Item: S23P
[reply] 2.55

[ask] Supply reported protein stability index belonging to this variant: N14F
[reply] 2.34

[ask] Find the measured protein stability index of H4R and report it.
[reply] 2.77

[ask] Return value of protein stability index for input N3H , no commentary.
[reply] 2.29

[ask] Give a short answer stating reported protein stability index for K5T .
[reply] 2.44

[ask] Tell me its protein stability index given R21T as the entry.
[reply] 2.44

[ask] Could you please provide reported protein stability index for Y1W ? Thanks!
[reply] 2.92

[ask] Hello, please tell me recorded protein stability index for this one: H4K
[reply] 2.4

[ask] Indicate the recorded protein stability index value for this variant: D24R
[reply] 2.69

[ask] Specify protein stability index for L9Q and stop.
[reply] 3.19

[ask] Identify measured protein stability index corresponding to G19V
[reply] 2.31

[ask] Please report protein stability index for the following variant: I6Q
[reply] 2.98

[ask] For the variant N13H , give its reported protein stability index.
[reply] 2.15

[ask] // fetch protein stability index given entry L9W
[reply] 1.71

[ask] Supply recorded protein stability index for F16W here.
[reply] 1.93

[ask] Look up protein stability index of N14G and report it.
[reply] 2.46

[ask] Kindly indicate its recorded protein stability index. Item: Q2N
[reply] 3.48
